Assay: Drug extrusion in human CD8 positive cells assessed as change in mean fluorescence intensity at 5 x 10^-8 M preincubated for 20 mins followed by growth in photosensitizer-free media for 30 mins by flow cytometric analysis relative to control
Type: cell-based
Details: 0.5 h, 0.05 µM
Entries whose Activity is below 60% take Fulfilled; entries at or above 60% take Not fulfilled.

smiles.structure: CN1CCC(C)(C)c2cc3c(cc21)[Se]c1cc2c(cc1=C3c1ccc(C(=S)N3CCCCC3)s1)C(C)(C)CC[N+]=2C.[Cl-]
group.label: Fulfilled

smiles.structure: C[N+]1=c2cc3c(cc2C(C)(C)CC1)=C(c1ccc(C(=O)N2CCCCC2)s1)c1cc2c4c(c1[Se]3)CCCN4CCC2.[Cl-]
group.label: Not fulfilled

smiles.structure: O=C(c1ccc(C2=c3cc4c5c(c3[Se]c3c2cc2c6c3CCCN6CCC2)CCC[N+]=5CCC4)s1)N1CCCCC1.[Cl-]
group.label: Not fulfilled

smiles.structure: CN1CCC(C)(C)c2cc3c(cc21)[Se]c1cc2c(cc1=C3c1ccc(C(=O)N3CCCCC3)s1)C(C)(C)CC[N+]=2C.[Cl-]
group.label: Not fulfilled

smiles.structure: C[N+]1=c2cc3c(cc2C(C)(C)CC1)=C(c1ccc(C(=S)N2CCCCC2)s1)c1cc2c4c(c1[Se]3)CCCN4CCC2.[Cl-]
group.label: Fulfilled

* * *

Tested on: ABCB1
Assay: Permeability from apical to basolateral side in dog MDCK2-MDR1 cells expressing ABCB1 at 5 uM after 30 mins in presence of compound 15 by LC-MS/MS analysis
Format: ADME, cell-based, Canis lupus familiaris, MDCK-II
Details: MDCK-MDR1, with compound 15 (concentration not stated), read-out: permeability
Papp A→B at 0.5 h, 5 µM listing for selected molecules.

smiles.structure: CN1CCC(C)(C)c2cc3c(cc21)[Se]c1cc2c(cc1=C3c1ccc(C(=S)N3CCCCC3)s1)C(C)(C)CC[N+]=2C.[Cl-]
Papp A→B at 0.5 h, 5 µM, ×10⁻⁶ cm/s: 0.051
--
smiles.structure: O=C(c1ccc(C2=c3cc4c5c(c3[Se]c3c2cc2c6c3CCCN6CCC2)CCC[N+]=5CCC4)s1)N1CCCCC1.[Cl-]
Papp A→B at 0.5 h, 5 µM, ×10⁻⁶ cm/s: 0.024
--
smiles.structure: C[N+]1=c2cc3c(cc2C(C)(C)CC1)=C(c1ccc(C(=O)N2CCCCC2)s1)c1cc2c4c(c1[Se]3)CCCN4CCC2.[Cl-]
Papp A→B at 0.5 h, 5 µM, ×10⁻⁶ cm/s: 0.018
--
smiles.structure: C[N+]1=c2cc3c(cc2C(C)(C)CC1)=C(c1ccc(C(=S)N2CCCCC2)s1)c1cc2c4c(c1[Se]3)CCCN4CCC2.[Cl-]
Papp A→B at 0.5 h, 5 µM, ×10⁻⁶ cm/s: 0.046
--
smiles.structure: CN1CCC(C)(C)c2cc3c(cc21)[Se]c1cc2c(cc1=C3c1ccc(C(=O)N3CCCCC3)s1)C(C)(C)CC[N+]=2C.[Cl-]
Papp A→B at 0.5 h, 5 µM, ×10⁻⁶ cm/s: 0.051
--
smiles.structure: S=C(c1ccc(C2=c3cc4c5c(c3[Se]c3c2cc2c6c3CCCN6CCC2)CCC[N+]=5CCC4)s1)N1CCCCC1.[Cl-]
Papp A→B at 0.5 h, 5 µM, ×10⁻⁶ cm/s: 0.051

* * *

Tested on: ABCB1
Assay: Passive permeability in dog MDCK2-MDR1 cells expressing ABCB1 at 5 uM after 30 mins in presence of compound 15 by LC-MS/MS analysis
Assay type: ADME, cell-based, Canis lupus familiaris, MDCK-II
Conditions: MDCK-MDR1, with compound 15 (concentration not stated), read-out: permeability
readout.name: Papp at 0.5 h, 5 µM

smiles.structure: C[N+]1=c2cc3c(cc2C(C)(C)CC1)=C(c1ccc(C(=S)N2CCCCC2)s1)c1cc2c4c(c1[Se]3)CCCN4CCC2.[Cl-]
test.target: ABCB1
readout.name: Papp at 0.5 h, 5 µM
test.value: < 0.1 ×10⁻⁶ cm/s
//
smiles.structure: S=C(c1ccc(C2=c3cc4c5c(c3[Se]c3c2cc2c6c3CCCN6CCC2)CCC[N+]=5CCC4)s1)N1CCCCC1.[Cl-]
test.target: ABCB1
readout.name: Papp at 0.5 h, 5 µM
test.value: < 0.1 ×10⁻⁶ cm/s
//
smiles.structure: CN1CCC(C)(C)c2cc3c(cc21)[Se]c1cc2c(cc1=C3c1ccc(C(=S)N3CCCCC3)s1)C(C)(C)CC[N+]=2C.[Cl-]
test.target: ABCB1
readout.name: Papp at 0.5 h, 5 µM
test.value: < 0.1 ×10⁻⁶ cm/s
